Record form. Attribute: phosphorylation enrichment. Fill in for each entry.
Target: Fes (UniProt P07332)
Sequence (P07332 whole entry, looked up): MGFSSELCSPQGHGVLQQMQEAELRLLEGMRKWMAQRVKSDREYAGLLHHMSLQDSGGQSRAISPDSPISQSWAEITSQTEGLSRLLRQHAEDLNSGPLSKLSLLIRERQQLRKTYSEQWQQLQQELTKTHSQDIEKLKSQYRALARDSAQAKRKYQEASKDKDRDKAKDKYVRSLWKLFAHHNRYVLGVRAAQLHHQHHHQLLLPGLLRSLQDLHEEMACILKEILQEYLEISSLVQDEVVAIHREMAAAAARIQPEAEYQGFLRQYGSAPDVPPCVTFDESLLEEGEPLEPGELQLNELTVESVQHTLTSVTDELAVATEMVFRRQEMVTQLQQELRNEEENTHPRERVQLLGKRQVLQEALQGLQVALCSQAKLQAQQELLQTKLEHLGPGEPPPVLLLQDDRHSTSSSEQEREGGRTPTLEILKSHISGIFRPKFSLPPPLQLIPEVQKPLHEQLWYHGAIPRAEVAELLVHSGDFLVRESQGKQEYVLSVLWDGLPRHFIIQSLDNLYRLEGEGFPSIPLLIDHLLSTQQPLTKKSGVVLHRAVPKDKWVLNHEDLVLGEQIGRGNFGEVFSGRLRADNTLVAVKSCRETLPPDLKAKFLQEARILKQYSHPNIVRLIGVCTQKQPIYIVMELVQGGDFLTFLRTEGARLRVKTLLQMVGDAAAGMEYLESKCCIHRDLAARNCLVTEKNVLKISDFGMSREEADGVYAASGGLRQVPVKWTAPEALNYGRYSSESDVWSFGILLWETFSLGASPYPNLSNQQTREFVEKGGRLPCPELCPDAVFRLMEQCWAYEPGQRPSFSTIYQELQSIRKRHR
Assay: phosphorylation enrichment, bacterial display (enrichment ratio); higher = better substrate or ligand; peptides without Tyr show the background;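 note: 11-residue human phosphosite peptides and single-mutation variants displayed on the E. coli surface, counted by deep sequencing, each peptide's frequency after selection divided by its frequency in the unselected input library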;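 note: frequency after pTyr selection over input frequency; kinase dosed for 20-30% of maximal phosphorylation in three min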
The answer should be written as a number, with no unit following it.

Provide phosphorylation enrichment value for the following sequence: ICANKYMVESC [RPL10_Y75_K78E] 1.14

# return recorded phosphorylation enrichment for input KDGIGYISAAE [CALM2_Y100_N98I] 0.763

Please report phosphorylation enrichment for the following sequence: EAAFVYVISSA [WNT4_Y113_A114V] 1.45

Using the record for PEADKYHLTYA [FGG_Y300_R301H] , state its measured phosphorylation enrichment. 0.985

Annotate the sequence LVMFIYAIFWM [SCN1A_Y1684_G1688W] with its measured phosphorylation enrichment. 1.05

Query phosphorylation enrichment for TKFVAYIESQG [KDM4B_Y34_N29T_YF] 1.02

Quickly give me recorded phosphorylation enrichment for CHSDDYVHISL [TSC1_Y406] 1.13

Recall and state the measured phosphorylation enrichment for DEEEEYEYMNR [ERBB3_Y1197_D1194E] . 1.17

Identify measured phosphorylation enrichment corresponding to EFQLPYFNTVP [BMPR1A_Y457_M460T_YF] 0.935

----------
Field: phosphorylation enrichment. Provide a value for each of the sequences that follow.
Target: Fes (UniProt P07332)
Experiment: phosphorylation enrichment, bacterial display (enrichment ratio); higher = better substrate or ligand; peptides without Tyr show the background

Using the record for TQPSPYAVYRF [RPGRIP1_Y823] , state its measured phosphorylation enrichment. 0.834

Look up and state reported phosphorylation enrichment for QKMADYSNKLF [PDPR_Y104_YF] 1.41

// Input: KDHPDYEYQPR [SOX9_Y172_K173E] . Output its phosphorylation enrichment only. 0.961

Read the entry HNLDFYKKTTN [FGFR3_Y648_YF] and write its reported phosphorylation enrichment. 3.91

Specify measured phosphorylation enrichment for FVHDNYVIQRT [CPS1_Y1450_R1453Q] . 0.672

Return value of phosphorylation enrichment for input RILENYGADID [DNAH5_Y596_L591R] , no commentary. 1.06

Recall and state the measured phosphorylation enrichment for ADGLEYPRTGL [MMUT_Y287_S288P] . 0.835

Using the record for VMTSKYRGGGG [HBA1_Y141_L137M] , state its measured phosphorylation enrichment. 0.491

Supply phosphorylation enrichment value. Item: DSRRDYVSQFE [APOA1_Y53_G50R] 0.709

Look up and report measured phosphorylation enrichment for this entry: SGDITYGQFAQ [PLCG1_Y210] 0.632

Supply phosphorylation enrichment value. Item: LIGRGYDDPEV [HSPA9_Y128_R127G] 1.88

In one line, give reported phosphorylation enrichment of the entry ERKQTYGSCRK [LACTB_Y473] . 0.636

Give recorded phosphorylation enrichment. CENCHYPIVPL [LCK_Y25] 0.749

Please report the measured phosphorylation enrichment for QGLMPYGQPRP [SRRT_Y798] 0.863

Report phosphorylation enrichment for HAVEDYQAIVD [CCT7_Y263_T259A] 1.47

Give the measured phosphorylation enrichment for SVTCTNSPALN [TP53_Y126_Y126N] 1.24

Look up phosphorylation enrichment of EQSGSYIWVPA [DLG1_Y895] and report it. 1.16

State its phosphorylation enrichment for this sequence: THLARYSDELR [APOA1_Y190_P189R] 0.645

Give a short answer stating reported phosphorylation enrichment for LHSEAYLKFNE [PBRM1_Y1610_I1614N_YF] . 1.31

Read the entry HFPFQYHRQLF [F12_Y53_YF] and write its reported phosphorylation enrichment. 0.78

Note down phosphorylation enrichment recorded for EEGNPYFSSAR [MCCC2_Y520_YF] 0.966

// fetch phosphorylation enrichment given entry SEKIVYGHVDD [ACO2_Y71_L74V] 0.805

Determine its reported phosphorylation enrichment: VMLENYSNLLS [ZFP69_Y109_V113L] 0.832

Tell me phosphorylation enrichment reported for TQRPFYKGGGG [TYROBP_Y112_YF] 0.512

Answer with the recorded phosphorylation enrichment of EAVLHYKHQNQ [MTOR_Y1804] only. 0.799

Look up phosphorylation enrichment of DLNATYCTIQG [U2SURP_Y634_R635C] and report it. 1.07

Read the entry NNFGNYNNQSS [HNRNPA1_Y318_D314N] and write its reported phosphorylation enrichment. 0.632

Give recorded phosphorylation enrichment. TMETKYDNISR [SETDB2_Y477_V473M] 0.689

Using known records, supply phosphorylation enrichment for PEIIAYQPYGK [PRKCG_Y529] 1.08

Identify phosphorylation enrichment associated with the sequence ISHVAYLVLGK [TRRAP_Y892_R893L] 1.07

Supply measured phosphorylation enrichment of SLQSEYVHFGG [CDC14A_Y591_YF] in your reply. 0.963

Using the record for QYRFIYMAVQH [PTPN11_Y515] , state its measured phosphorylation enrichment. 1.22

Using the record for YSNKLYYQLEQ [PDPR_Y109] , state its measured phosphorylation enrichment. 1.09

Answer with the recorded phosphorylation enrichment of TIWDSYTTNKV [GNB1_Y85_I80T] only. 1.11

// Input: KNRDVYSSDYF [USP24_Y2134] . Output its phosphorylation enrichment only. 0.944

Name the recorded phosphorylation enrichment of the item LIDGYYRLTAD [JAK2_Y373] in your answer. 2.59

Return phosphorylation enrichment (reported value) for this sequence: NRLTDYYELLL [BBS10_Y536_P539L] 1.17

Quick one: give measured phosphorylation enrichment for GISDEYHVIWH [GCDH_Y398_R402W] 1.17

Specify measured phosphorylation enrichment for HEKKAYSFCGT [RPS6KA3_Y226] . 1.8

Identify the reported phosphorylation enrichment for the following entry. TFHNTYHSHMR [IL1RAPL1_Y615_Q618H] 0.884

Tell me its phosphorylation enrichment given ADEEEYEIIAA [FEStide_E_2014] as the entry. 1.32

Could you please provide reported phosphorylation enrichment for KDHPDYKFPPR [SOX10_Y171_Q174P_YF] ? Thanks! 0.685

Give the reported value of phosphorylation enrichment for this record: ADPQEYIPLPA [JAKtide_2014] 0.983

Entry NTGDFYDLFGG [PTPN11_Y63_YF] needs its phosphorylation enrichment filled in; supply it. 1.06

Check the records and state phosphorylation enrichment for DFPIGYPSYLA [TBCK_Y153] 0.902

Using known records, supply phosphorylation enrichment for LKALHYMAQTS [SACS_Y3367_V3369A] 0.94

Give phosphorylation enrichment for ALVDTYCRHNF [HLA-DRB1_Y107_A103L_YF] 0.935

Dear colleague, please send me the reported phosphorylation enrichment for DSILVYQRKEQ [USH2A_Y1909_G1911R] when you can. 0.744

Give phosphorylation enrichment for PLDGEHFTLQI [TP53_Y327_Y327H] 1.87

State its phosphorylation enrichment: QMQLKYSQSDL [SMC1A_Y714_R711Q] 1.32

Find the measured phosphorylation enrichment of NHYKICNLCAE [PTEN_Y68_Y68C] and report it. 0.691

Kindly indicate its recorded phosphorylation enrichment. Item: SSEYHCVGGFY [CTSC_Y347_Y347C] 1.45

Tell us which phosphorylation enrichment value is on record for TLRKTYGEMAD [ALB_Y108_E106K] 0.709

Tell me measured phosphorylation enrichment for IVKAYYVHARA [AIPL1_Y268_R270H] please. 0.978

Note down phosphorylation enrichment recorded for FIPFRYPKEFQ [IDS_Y234_H229Y_YF] 0.883

----------
Target: Jak2 (UniProt O60674)
Sequence (O60674 whole entry, looked up): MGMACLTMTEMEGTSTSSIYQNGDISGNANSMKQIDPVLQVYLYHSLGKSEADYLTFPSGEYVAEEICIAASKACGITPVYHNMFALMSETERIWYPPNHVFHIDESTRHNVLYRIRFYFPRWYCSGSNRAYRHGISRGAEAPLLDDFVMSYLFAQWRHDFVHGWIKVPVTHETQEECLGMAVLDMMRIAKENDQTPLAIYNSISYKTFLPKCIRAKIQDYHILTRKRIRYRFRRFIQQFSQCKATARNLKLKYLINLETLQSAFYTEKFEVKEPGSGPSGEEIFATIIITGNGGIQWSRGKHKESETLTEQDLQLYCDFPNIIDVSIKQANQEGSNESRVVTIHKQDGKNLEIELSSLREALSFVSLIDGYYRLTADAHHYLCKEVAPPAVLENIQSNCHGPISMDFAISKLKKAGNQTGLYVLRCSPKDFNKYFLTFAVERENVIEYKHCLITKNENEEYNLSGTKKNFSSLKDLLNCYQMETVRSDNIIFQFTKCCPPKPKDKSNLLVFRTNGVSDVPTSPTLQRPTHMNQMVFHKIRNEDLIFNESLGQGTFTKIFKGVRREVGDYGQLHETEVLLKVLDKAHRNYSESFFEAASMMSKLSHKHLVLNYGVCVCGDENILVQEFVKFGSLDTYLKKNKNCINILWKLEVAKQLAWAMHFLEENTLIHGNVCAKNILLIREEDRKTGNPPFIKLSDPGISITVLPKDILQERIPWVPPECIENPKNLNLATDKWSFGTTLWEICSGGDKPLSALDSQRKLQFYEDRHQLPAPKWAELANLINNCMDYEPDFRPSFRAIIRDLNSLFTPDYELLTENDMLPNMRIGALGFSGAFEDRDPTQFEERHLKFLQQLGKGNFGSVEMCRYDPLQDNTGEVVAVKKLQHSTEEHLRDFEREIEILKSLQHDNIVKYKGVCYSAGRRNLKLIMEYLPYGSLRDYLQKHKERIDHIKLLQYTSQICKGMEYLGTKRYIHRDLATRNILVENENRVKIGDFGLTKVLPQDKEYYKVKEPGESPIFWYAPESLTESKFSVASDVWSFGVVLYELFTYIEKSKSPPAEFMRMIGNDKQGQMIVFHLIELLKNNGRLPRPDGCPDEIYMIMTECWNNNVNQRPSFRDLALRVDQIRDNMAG
Assay: phosphorylation enrichment, bacterial display (enrichment ratio); higher = better substrate or ligand; peptides without Tyr show the background
Answer each item with its documented phosphorylation enrichment.
Lab note: jot down the number only; don't add units.

Consider the sequence CQAHGYFCQPI [STK11_Y156_L160P] and give its recorded phosphorylation enrichment. 0.615

Specify phosphorylation enrichment for HDEPTYARSSK [PEAK1_Y616] and stop. 1.01

Give phosphorylation enrichment for the following sequence: MSLDQYSPSFP [FGFR1_Y776_P772S] 0.929

Please supply the value of reported phosphorylation enrichment for the item VMTVDYSKTVV [SETD2_Y770] 0.615

# return recorded phosphorylation enrichment for input SPDMLYQYLKQ [RPAP3_Y567] 0.727

Supply reported phosphorylation enrichment belonging to this sequence: DENCFYTRAAS [RPS19_Y54_W52C] 0.841

Specify measured phosphorylation enrichment for NIRKKYYRAIL [CHD7_Y1217_Q1214R] . 0.494

# return recorded phosphorylation enrichment for entry SMAKYYASGIA [ACADSB_Y373_E376G] 0.665

Input FVHDNYVIQRT [CPS1_Y1450_R1453Q] , output reported phosphorylation enrichment. 0.7

Tell me its phosphorylation enrichment given GTATAYLCGVK [ALPL_Y117] as the entry. 0.89

Respond only with phosphorylation enrichment recorded for RRVLVYGGRGA [QDPR_Y16] 0.361

Give the measured phosphorylation enrichment for KRLDGYVLEGW [IGSF9_Y656_R661W] 0.651

Identify phosphorylation enrichment associated with the sequence CVAARYMDVKG [WFIKKN2_Y93] 0.696

Recall and state the measured phosphorylation enrichment for LTEHGYSFTTT [ACTB_Y198_R196H] . 1.61

Report phosphorylation enrichment for MSGDVYSTDYY [NTRK2_Y702_R699G] 1.05

Tell me measured phosphorylation enrichment for VDGFVYKLHPS [GCK_Y413_S411F] please. 0.999

Provide only the value of recorded phosphorylation enrichment for EADRKYEEVAH [TPM3_Y163_R168H] 0.938

Please give the documented phosphorylation enrichment of KLLLKYSFHDV [RNF213_Y4141] 1.57

Give me measured phosphorylation enrichment, please, for this sequence: ICANKYMVESC [RPL10_Y75_K78E] 0.982

Indicate the recorded phosphorylation enrichment value for this sequence: KNSFKYFMSDD [ATRX_Y203_C200S_YF] 0.869

Answer with the recorded phosphorylation enrichment of RKQQLYTAMEE [CCDC39_Y593] only. 0.836

Give the reported phosphorylation enrichment for this sequence. EQLQSYQVEII [KRT33A_Y268_A270V] 0.945

Report measured phosphorylation enrichment; entry is RRIYSYRGHLW [VHL_Y112_H110Y] 0.691

Please give measured phosphorylation enrichment of the following entry: EKLIQYCQSKG [AKR1B1_Y199] 0.573

Quote phosphorylation enrichment reported for SHEELYKWFTS [DYNC1H1_Y3051] please. 1.05

Provide only the value of recorded phosphorylation enrichment for TLCLCYKETEE [ATP8B1_Y658_I661T] 1.53

Indicate its recorded phosphorylation enrichment; the sequence in question is ADAHHYLCKEV [JAK2_Y382] 0.837

Determine from records and report phosphorylation enrichment for DLNATYCTIQG [U2SURP_Y634_R635C] 0.845

Determine its reported phosphorylation enrichment: GTSLIYWILFT [G6PC3_Y214_T216I] 1.59

Quickly give me recorded phosphorylation enrichment for ILGRYYETSSI [PAX2_Y73_G76S] 0.632

Write down phosphorylation enrichment measured for item TTICKYITPME [GUCY2C_Y839_S840I] 0.728

Answer with reported phosphorylation enrichment of KSAAIYNPVIF [RHO_Y301_YF] 0.634

Return the recorded phosphorylation enrichment value; entry: LIQRNYKLTAQ [ALPK2_Y1975_A1978T] 1.24

Using the record for AISEGYKDFRA [CDA_Y79_V75I] , state its measured phosphorylation enrichment. 0.617

Supply phosphorylation enrichment value. Item: QKMADYSNKLF [PDPR_Y104_YF] 1.41

For the sequence IAINKYEVSLI [MYO7A_Y2136_G2137E] , give its measured phosphorylation enrichment value. 0.851

Recall and state the measured phosphorylation enrichment for NTTIHYNFMCN [TP53_Y234_C229N_YF] . 1.02

Using the record for QMQNPYSSHSS [MUC13_Y501_R503S] , state its measured phosphorylation enrichment. 0.467

Provide phosphorylation enrichment value for the following sequence: VIVRMYDYHVL [RPF2_Y109_G106V] 0.975

Read off the recorded phosphorylation enrichment for IGRWVYPLTPE [EIF2B5_Y319_R315G] 0.874

Please indicate phosphorylation enrichment recorded for EEVKAYLDFGE [CHAC2_Y78_R82G] 1.62

Quote phosphorylation enrichment reported for ARSHIYTFASC [MEFV_Y741] please. 0.866

Name the recorded phosphorylation enrichment of the sequence listed here: FDNPVYQKTTE [LDLR_Y828] 0.549

Hello, please tell me recorded phosphorylation enrichment for this one: EELLRYAIVTP [POC5_Y37_H36R] 0.867
